All values here come from patent US11629201B2.

Bone listing for selected compounds.
# Tested on: PC-3 PIP/flu tumor-bearing mice
# protocol-description: Biodistribution studies in PC-3 PIP/flu tumor-bearing mice
# test-parameters: 4 h p.i.
Returns: string containing the number followed by the unit.

Example entries and their recorded answers appear below.
O=C(O)CCC(NC(=O)NC(CCCCNC(=O)C(Cc1ccc2ccccc2c1)NC(=O)C1CCC(CNC(=O)C(CCCCNC(=O)CN2CCN(CC(=O)O)CCN(CC(=O)O)CCN(CC(=O)O)CC2)NC(=O)CC(NC(=O)CC(NC(=O)CCCc2ccc(I)cc2)C(=O)O)C(=O)O)CC1)C(=O)O)C(=O)O (stereo not shown) [^177Lu-PSMA-ALB-05, metal not drawn]    1.67 ± 0.27 % IA/g
O=C(O)CCC(NC(=O)NC(CCCCNC(=O)C(Cc1ccc2ccccc2c1)NC(=O)C1CCC(CNC(=O)C(CCCCNC(=O)CCCc2ccc(I)cc2)NC(=O)CN2CCN(CC(=O)O)CCN(CC(=O)O)CCN(CC(=O)O)CC2)CC1)C(=O)O)C(=O)O (stereo not shown) [^177Lu-PSMA-ALB-03, metal not drawn]    2.47 ± 0.39 % IA/g
Cc1ccc(CCCC(=O)NC(CC(=O)NC(CC(=O)NC(CC(=O)NC(CCCCNC(=O)CN2CCN(CC(=O)O)CCN(CC(=O)O)CCN(CC(=O)O)CC2)C(=O)NCC2CCC(C(=O)NC(Cc3ccc4ccccc4c3)C(=O)NCCCCC(NC(=O)NC(CCC(=O)O)C(=O)O)C(=O)O)CC2)C(=O)O)C(=O)O)C(=O)O)cc1 (stereo not shown) [^177Lu-PSMA-ALB-08, metal not drawn]    0.16 ± 0.03 % IA/g

API: the following record is the query input.
API: value(readout= Bone, system= PC-3 PIP/flu tumor-bearing mice, query= Cc1ccc(CCCC(=O)NCCCCC(NC(=O)CN2CCN(CC(=O)O)CCN(CC(=O)O)CCN(CC(=O)O)CC2)C(=O)NCC2CCC(C(=O)NC(Cc3ccc4ccccc4c3)C(=O)NCCCCC(NC(=O)NC(CCC(=O)O)C(=O)O)C(=O)O)CC2)cc1 (stereo not shown) [^177Lu-PSMA-ALB-06, metal not drawn] ) 2.23 ± 0.08 % IA/g

----------
# Tested on: PC-3 PIP/flu tumor-bearing mice
# protocol-description: Biodistribution studies in PC-3 PIP/flu tumor-bearing mice
# test-parameters: 48 h p.i.; PC-3 PIP tumor
property-label: Tumor-to-kidney
When you answer, write just the number.

O=C(O)CCC(NC(=O)NC(CCCCNC(=O)C(Cc1ccc2ccccc2c1)NC(=O)C1CCC(CNC(=O)C(CCCCNC(=O)CN2CCN(CC(=O)O)CCN(CC(=O)O)CCN(CC(=O)O)CC2)NC(=O)CCCCCCC(=O)NC(CCCCNC(=O)CCCc2ccc(I)cc2)C(=O)O)CC1)C(=O)O)C(=O)O (centres unmarked) [^177Lu-PSMA-ALB-04, metal not drawn]    2.47

Consider now this further molecule.
So what Tumor-to-kidney did O=C(O)CCC(NC(=O)NC(CCCCNC(=O)C(Cc1ccc2ccccc2c1)NC(=O)C1CCC(CNC(=O)C(CCCCNC(=O)CN2CCN(CC(=O)O)CCN(CC(=O)O)CCN(CC(=O)O)CC2)NC(=O)CC(NC(=O)CC(NC(=O)CC(NC(=O)CCCc2ccc(I)cc2)C(=O)O)C(=O)O)C(=O)O)CC1)C(=O)O)C(=O)O (centres unmarked) [^177Lu-PSMA-ALB-07, metal not drawn] get with PC-3 PIP/flu tumor-bearing mice? 2.3
